tested on: L1210 leukemia ip in BDF1 mice, survival T/C; assay: NCI In Vivo Anticancer Drug Screen. Data for tumor model L1210 Leukemia (intraperitoneal) in B6D2F1 (BDF1) mice; details: endpoint: mean survival time; dose: 400.0 mg/kg/injection; schedule: Q01DX009 (ip); vehicle: saline; higher = longer survival
Inconclusive results and toxic doses are left out.
value-kind: T/C

Recorded T/C (compound CC(=O)C1(O)CCCCC1 ): 109 % of control

Lab book: T/C of NC(=O)Oc1ccccc1 noted as 120 % of control

Query O=S(=O)(O)CNc1ccccc1 yields T/C of 95 % of control

So for CC(=O)CC(O)(C(F)(F)F)C(F)(F)F , the logged T/C turned out to be 93 % of control

Sample CCS(=O)(=O)CC ; T/C observed: 97 % of control

GET /value?item= O=c1[nH]c(=O)n(C2CC(O)C(CO)O2)cc1F (stereo not drawn) &field=T/C returns 102 % of control

The compound listed as CCC(C)(CC(=O)O)CC(=O)O has a reported T/C of 96 % of control

Summary for this compound, Nc1ccc(OCC(=O)N2CCOCC2)c(Cl)c1 : T/C is 96 % of control

====

tested on: L1210 leukemia ip in BDF1 mice, survival T/C; assay: NCI In Vivo Anticancer Drug Screen. Data for tumor model L1210 Leukemia (intraperitoneal) in B6D2F1 (BDF1) mice; settings: endpoint: mean survival time; dose: 50.0 mg/kg/injection; schedule: Q01DX009 (ip); vehicle: saline; higher = longer survival
Inconclusive results and toxic doses are left out.
Would you kindly list T/C for each of these compounds?

Lab note: O=C(C(F)F)C(F)F gave T/C of 91 % of control

For reference, reported T/C for NCc1cc2c3c(c1)CCCN3CCC2 stands at 104 % of control

Field T/C (entry N=c1ccc2nc3ccc(N)cc3sc-2c1 ) reads 98 % of control

====

Tested on: L1210 leukemia ip in BDF1 mice, survival T/C
Assay: NCI In Vivo Anticancer Drug Screen. Data for tumor model L1210 Leukemia (intraperitoneal) in B6D2F1 (BDF1) mice
Conditions: endpoint: mean survival time; dose: 50.0 mg/kg/injection; schedule: Q01DX009 (ip); vehicle: saline with Tween-80; higher = longer survival
Protocol: The antitumor activity of compounds was measured in mice bearing transplantable tumors. Survival or tumor size were measured and the results are expressed as the measurement made in the treated group (T) divided by the measurement made in the vehicle treated control group (C). The tumor model used in this assay is L1210 Leukemia (intraperitoneal) in B6D2F1 (BDF1) mice
Inconclusive results and toxic doses are left out.
Please provide measured T/C for the entries that follow.

Fill in: L1210 leukemia ip in BDF1 mice, survival T/C T/C for N#CC1c2ccccc2C=CN1C(=O)c1ccccc1 (stereo not given) = 95 % of control

Tested on L1210 leukemia ip in BDF1 mice, survival T/C: CCCCOc1ccc(/C=N/NC(=O)CNC(=O)Nc2cccc([N+](=O)[O-])c2)cc1 . Observed T/C: 96 % of control

Tested on L1210 leukemia ip in BDF1 mice, survival T/C: O=C(O)C1(Cl)CC2C=CC1C2 (stereo not given) . Observed T/C: 93 % of control

Form field T/C for item C/C(=C\c1ccc2c(c1)OCO2)[N+](=O)[O-] on L1210 leukemia ip in BDF1 mice, survival T/C: 108 % of control

Measured T/C for this entry O=S(=O)(O)c1ccc(N=Nc2ccc(O)cc2)cc1 on L1210 leukemia ip in BDF1 mice, survival T/C: 102 % of control

====

Provide the recorded T/C for the entries that follow.
test system: L1210 leukemia ip in BDF1 mice, survival T/C; assay: NCI In Vivo Anticancer Drug Screen. Data for tumor model L1210 Leukemia (intraperitoneal) in B6D2F1 (BDF1) mice; conditions: endpoint: mean survival time; dose: 200.0 mg/kg/injection; schedule: Q01DX001 (ip); vehicle: saline; higher = longer survival
Inconclusive results and toxic doses are left out.

The reported T/C of the compound CC1COCC(C)N1C(=O)c1cccnc1 (stereo unspecified) was 99 % of control

// recorded T/C for CC(=O)CC(C)(C)C : 98 % of control

Given item COC1CC(O)C(O)C(C)O1 (stereo unspecified) , the value recorded as its T/C is 96 % of control

Measured T/C, O=C(NCCCl)NC1CCCC(O)C1 (stereo unspecified) : 101 % of control

Form field T/C, entry O=C1OCCN1NCc1ccc([N+](=O)[O-])o1 : 103 % of control

Documented T/C of NN=C(c1ccccc1)c1ccccc1 : 100 % of control

====

system: L1210 leukemia ip in BDF1 mice, survival T/C; test: NCI In Vivo Anticancer Drug Screen. Data for tumor model L1210 Leukemia (intraperitoneal) in B6D2F1 (BDF1) mice; conditions: endpoint: mean survival time; dose: 25.0 mg/kg/injection; schedule: Q04DX003 (ip); vehicle: saline; higher = longer survival
Toxic doses and inconclusive results are not listed.
value-kind: T/C

// C[N+](C)(C)C1(Cc2ccccc2)c2ccccc2-c2ccccc21 : T/C value = 96 % of control

Measured T/C, CCC(NCC(C)C)NCC(C)C : 105 % of control

Form field T/C, entry CCCCNc1cc2c3c(c1)CCCN3CCC2 : 98 % of control

Record CC(CCc1ccccc1)NC(C)C(O)c1ccc(O)cc1 (stereo unspecified) . Reported T/C: 102 % of control

What the record says about O/N=c1/ccn(O)c2ccccc12 : T/C is 88 % of control

Recorded T/C (molecule CNCCOC(c1ccccc1)c1ccccc1C (stereo unspecified) ): 94 % of control

====

Could you please report measured T/C for the items listed next?
tested on: L1210 leukemia ip in BDF1 mice, survival T/C; assay: NCI In Vivo Anticancer Drug Screen. Data for tumor model L1210 Leukemia (intraperitoneal) in B6D2F1 (BDF1) mice; settings: endpoint: mean survival time; dose: 400.0 mg/kg/injection; schedule: Q01DX001 (ip); vehicle: saline; higher = longer survival
Toxic doses and inconclusive results are not listed.

The recorded T/C for entry CCNC(=O)NCC equals 97 % of control

T/C for CC(=O)Nc1ccc(Cc2ccc(NC(C)=O)cc2N)c(N)c1 is 92 % of control

What the record says about O=C(COc1ccc(Cl)cc1C(=O)O)NCc1ccc(NC(=O)Nc2cccc(S(=O)(=O)F)c2)cc1 : T/C is 104 % of control

Value of measured T/C for the entry O=C(O)c1ccc(NC(Nc2ccc(C(=O)O)cc2)C(=O)c2ccccc2)cc1 : 101 % of control

Sure, the documented T/C for O=C(O)CC1CCN(C(=O)c2ccccc2)C(Cc2c[nH]c3ccccc23)C1O (stereo not drawn) is 92 % of control

Briefly, T/C measured for O=C1NNCc2c1sc1ccccc21 : 102 % of control

Record summary for Cc1cccc2c(N=Nc3ccccc3[N+](=O)[O-])c(O)[nH]c12 : reported T/C = 97 % of control

For record O=C(CNC(=O)c1ccccc1)Nc1ccccc1 the listed T/C is 97 % of control

get_value(item= CN(C)/N=C1\CCc2ccccc21 , readout=T/C) returns 101 % of control

Memo: Cc1ccccc1C(c1ccccc1)N(C)C (stereo not drawn) , reported T/C: 92 % of control

Per the records, this compound ( CCOC(=O)C(C(=O)OCC)c1ccc(Cl)cc1 ) has T/C equal to 106 % of control

For reference, reported T/C for CC(COc1cc(Cl)c(Cl)cc1Cl)OC(=O)COc1ccc(Cl)cc1Cl (stereo not drawn) stands at 95 % of control

// recorded T/C for OCC(O)C(O)C(O)C(c1ccccc1)c1ccccc1 (stereo not drawn) : 98 % of control

====

system: L1210 leukemia ip in BDF1 mice, survival T/C; experiment: NCI In Vivo Anticancer Drug Screen. Data for tumor model L1210 Leukemia (intraperitoneal) in B6D2F1 (BDF1) mice; conditions: endpoint: mean survival time; dose: 400.0 mg/kg/injection; schedule: Q01DX001 (ip); vehicle: saline with Tween-80; higher = longer survival
Inconclusive results and toxic doses are left out.
Give T/C for every item shown.

Form: item CC1=NN(c2cccc([N+](=O)[O-])c2)C(=O)C1 ; test system L1210 leukemia ip in BDF1 mice, survival T/C; T/C: 98 % of control

C(CCC1CCCC1)=C(CCCC1CCCC1)CCCC1CCCC1 tested on L1210 leukemia ip in BDF1 mice, survival T/C gave T/C: 91 % of control

Entry C/C=C(\C#N)c1ccc(-c2ccccc2)cc1 , tested on L1210 leukemia ip in BDF1 mice, survival T/C, has a reported T/C of 98 % of control

Reported L1210 leukemia ip in BDF1 mice, survival T/C T/C for item CCCCCCCCP(=S)(CCCCCC)CCCCCC was 87 % of control

Test item CCOC(=O)CNCCN(CC)CC ; L1210 leukemia ip in BDF1 mice, survival T/C; reported T/C was 94 % of control
